assay info: Primary qHTS for delayed death inhibitors of the malarial parasite plastid, 48 hour incubation
settings: P. falciparum luciferase growth in erythrocytes; series mostly up to 28.7 µM
Out of some 310,000 compounds screened, about 18,000 (5.8%) were called active. Roughly 22% stayed inconclusive and do not appear here. Calls come from the whole dose curve; as a rule, active = well fitted inhibition curve with a large enough effect; inconclusive = small, poorly fitted or top-dose-only effect, or another doubt; inactive = no such curve, though single readings can be large or run the other way. Only a selection was taken, and actives are over-represented in it overall.
Select the correct class. Options are active, inactive and nothing else.

## Task Hi team, can someone confirm the assay call for C=CCSc1ccc(S(=O)(=O)N2CCN(C)CC2)cn1 ?
## Result inactive

## Task Hi team, can someone confirm the assay call for COc1cccc(N(C(=O)c2snc(C(N)=O)c2N)C(C(=O)NCC2CCCO2)c2c[nH]c3ccccc23)c1 (stereo not given) ?
## Result active

## Task Hi team, can someone confirm the assay call for Cc1cc(OC(=O)c2ccc(OC(C)C)cc2)c([N+](=O)[O-])c(=O)[nH]1 ?
## Result inactive

## Task Hi team, can someone confirm the assay call for CC(=O)NCCc1ccc(S(=O)(=O)Nc2ccc(C)c(S(=O)(=O)N3CCOCC3)c2)cc1 ?
## Result inactive

## Task Hi team, can someone confirm the assay call for O=C(NCCc1nnc2ccc(SCC(=O)N3CCOCC3)nn12)c1ccccc1 ?
## Result inactive

## Task Hi team, can someone confirm the assay call for Cc1ccc(OCC(=O)Nc2ccc(C(=O)O)cc2NC(=O)COc2ccc(C)c(C)c2)cc1C ?
## Result inactive

## Task Hi team, can someone confirm the assay call for CCC(=O)Nc1cccc(NC(=O)CSc2nnnn2C2CCCC2)c1 ?
## Result inactive

## Task Hi team, can someone confirm the assay call for CC(CC(=O)O)C(=O)c1ccc(Cl)c([N+](=O)[O-])c1 (stereo not given) ?
## Result inactive

## Task Hi team, can someone confirm the assay call for Cc1ccc(C)c(S(=O)(=O)N2CCN(C(=O)Nc3ccccc3)CC2)c1 ?
## Result inactive

## Task Hi team, can someone confirm the assay call for CCCCC(=O)Nc1c2c(nn1-c1ccc([N+](=O)[O-])cc1)CS(=O)(=O)C2 ?
## Result inactive

## Task Hi team, can someone confirm the assay call for O=C(NCCc1c[nH]c2ccccc12)C(=O)NCC1CCCO1 (stereo not given) ?
## Result inactive

## Task Hi team, can someone confirm the assay call for COc1ccc(C)cc1NC(=O)NCCCCc1ccccc1 ?
## Result active

## Task Hi team, can someone confirm the assay call for CCOc1ccc(N(C(=O)c2snc(C(N)=O)c2N)C(C(=O)NCC2CCCO2)c2c[nH]c3ccccc23)cc1 (stereo not given) ?
## Result active

## Task Hi team, can someone confirm the assay call for Cc1ccc(C(C(=O)NCC2CCCO2)N(C(=O)c2snc(C(N)=O)c2N)c2ccc(C(C)C)cc2)o1 (stereo not given) ?
## Result active

## Task Hi team, can someone confirm the assay call for COCCOC(=O)C1=C(C)NC(=O)NC1c1cc2c(cc1Br)OCO2 (stereo not given) ?
## Result inactive

## Task Hi team, can someone confirm the assay call for NC(=O)c1ccsc1NC(=O)COC(=O)Cc1n[nH]c(=O)c2ccccc12 ?
## Result inactive

====

assay info: Primary qHTS for delayed death inhibitors of the malarial parasite plastid, 48 hour incubation
settings: P. falciparum luciferase growth in erythrocytes; series mostly up to 28.7 µM
Screen size: about 310,000 compounds; about 18,000 (5.8%) were called active. Another 22% or so got no clear call; they are omitted. The call rests on the fitted dose curve; in most records, active means well fitted inhibition curve with a large enough effect; inconclusive means small, poorly fitted or top-dose-only effect, or another doubt; inactive means no such curve, though single readings can be large or run the other way. This excerpt belongs to a sample that is enriched for actives.
Select the correct class. Options are true (1) = active, false (0) = inactive and nothing else.

// below: answered compounds
COc1ccc(Nc2nc(NCc3ccco3)nc(N/N=C/c3ccccc3Cl)n2)cc1 = true (1)
CCOc1ccc(-n2c(SCC(=O)OC)nc3sc4c(c3c2=O)CCN(C)C4)cc1 = true (1)

## Task Hi team, can someone confirm the assay call for C=CCC(NCc1ccco1)c1ccc(OC)cc1 (stereo not drawn) ?
## Result false (0)

====

assay info: Primary qHTS for delayed death inhibitors of the malarial parasite plastid, 48 hour incubation; note: potency is the fitted concentration of half-maximal effect
settings: P. falciparum luciferase growth in erythrocytes; series mostly up to 28.7 µM
Out of some 310,000 compounds screened, about 18,000 (5.8%) were called active. About 22% were inconclusive and are not listed. This excerpt belongs to a sample that is enriched for actives.
metric name: Potency

Below: 4 compounds and their reported Potency.
CCOc1c(Nc2cccc(Cl)c2)c(=O)c1=O = 7.38 µM (active)
Cc1nn(CC(=O)NC2CCCCC2)c(=O)c2cccn12 = inactive
O=C(NNc1ccccc1Cl)C(O)(c1cccc(C(F)(F)F)c1)c1cccc(C(F)(F)F)c1 = 3.29 µM (active)
COc1ccc(C(=O)OCC(=O)N2CC(=O)Nc3ccccc32)cc1Br = inactive

## Task Given the compound COc1ccc(-n2c(C)cc(C(=O)CN3C(=O)NC4(CCc5ccccc54)C3=O)c2C)cc1 (stereo not given) , what is its reported Potency?
## Result 4.15 µM (active)

====

assay info: Primary qHTS for delayed death inhibitors of the malarial parasite plastid, 48 hour incubation; note: potency is the fitted concentration of half-maximal effect
settings: P. falciparum luciferase growth in erythrocytes; series mostly up to 28.7 µM
Screen size: about 310,000 compounds; about 18,000 (5.8%) were called active. Inconclusive results (about 22%) are left out. The full list was thinned out, with actives kept by preference.
metric name: Potency

Below: 5 compounds and their reported Potency.
CC(=O)Nc1ccc(Nc2cc(C)nc(Nc3ccc(NC(C)=O)cc3)n2)cc1 = 1.65 µM (active)
Cc1ccc(S(=O)(=O)Nc2ccc3ncccc3c2)cc1 = inactive
CCC(C(=O)NCc1cccnc1)n1nc(C)c2sc3ccccc3c2c1=O (configuration not stated) = inactive
CCC(=O)Nc1ccc(Nc2nc(Cl)nc(Nc3ccc(NC(=O)CC)cc3)n2)cc1 = inactive
O=C(c1ccncc1)N1CCN(S(=O)(=O)c2cc(C(F)(F)F)cc(C(F)(F)F)c2)CC1 = 11.7 µM (active)

## Task Given the compound O=C(NCc1ccc2c(c1)OCO2)C(=O)NCC1OCCN1S(=O)(=O)c1ccc(F)cc1 (configuration not stated) , what is its reported Potency?
## Result inactive

## Task Given the compound O=C(Cn1nc(CNc2ccc(Cl)cc2)[n+]2c1CCCCC2)c1ccc(Cl)cc1 , what is its reported Potency?
## Result 1.04 µM (active)

## Task Given the compound O=C(c1ccncc1)N1CCN(S(=O)(=O)c2cccc([N+](=O)[O-])c2)CC1 , what is its reported Potency?
## Result inactive

## Task Given the compound COC(=O)c1ccc(C(=O)OC)c(NC(=S)N2CCN(c3cc(Cl)ccc3C)CC2)c1 , what is its reported Potency?
## Result inactive

## Task Given the compound COc1ccccc1C(c1nnnn1CC1CCCO1)N1CCN(c2ccccc2)CC1 (configuration not stated) , what is its reported Potency?
## Result 11.7 µM (active)

## Task Given the compound CCN(C(=O)CSc1nnnn1-c1ccccc1OC)C1CCS(=O)(=O)C1 (configuration not stated) , what is its reported Potency?
## Result inactive

## Task Given the compound CCCC1=Nc2cc(C(=O)NCc3ccco3)ccc2Sc2ccccc21 , what is its reported Potency?
## Result 4.65 µM (active)

## Task Given the compound CCOC(=O)N1CCN(CCC(=O)Nc2ccccc2)CC1 , what is its reported Potency?
## Result inactive

## Task Given the compound Cc1ccccc1NC(=O)N1CCCC1C(=O)NCc1ccccc1 (configuration not stated) , what is its reported Potency?
## Result inactive

## Task Given the compound COc1cccc(N(C(=O)CNC(=O)c2ccco2)C(C(=O)NC2CCCCC2)c2cccnc2)c1 (configuration not stated) , what is its reported Potency?
## Result inactive

## Task Given the compound COC(=O)c1ccc(NCC(=O)N2CCCCCC2)cc1 , what is its reported Potency?
## Result inactive

## Task Given the compound COc1ccc(CCn2nnnc2C(c2ccccc2)N2CCN(C)CC2)cc1OC (configuration not stated) , what is its reported Potency?
## Result inactive

====

assay info: Primary qHTS for delayed death inhibitors of the malarial parasite plastid, 48 hour incubation
settings: P. falciparum luciferase growth in erythrocytes; series mostly up to 28.7 µM
Hit rate of the full screen: of about 310,000 compounds, about 18,000 (5.8%) were called active. Another 22% or so got no clear call; they are omitted. Calls follow the shape of the dose curve; as a rule, active = well fitted inhibition curve with a large enough effect; inconclusive = small, poorly fitted or top-dose-only effect, or another doubt; inactive = no such curve, though single readings can be large or run the other way. The sample as a whole holds a higher share of actives than the screen did.
Select the correct class. Options are active, inactive and nothing else.

// below: answered compounds
COc1ccccc1CNC(=O)C1CCN(S(C)(=O)=O)CC1 = inactive
CCOc1ccc(CC(=O)NCCS(=O)(=O)N2CCN(c3ccccc3)CC2)cc1 = inactive
Cc1ccc(C)c(S(=O)(=O)Nc2cc(C)on2)c1 = inactive
Cn1nc([N+](=O)[O-])nc1Sc1ccc(C(C)(C)C)cc1 = active
CCN1C(=O)/C(=c2\s/c(=C3\Sc4ccccc4N3C)c(=O)n2C)N(C)C1=S = inactive

## Task Hi team, can someone confirm the assay call for Cn1nc(C(C)(C)C)c([N+](=O)[O-])c1C(N)=O ?
## Result inactive

## Task Hi team, can someone confirm the assay call for COc1ccc(CNC(=O)CN2CCC(n3nnc4cc(F)ccc43)CC2)cc1 ?
## Result inactive
